Recorded values, source patent US6426331B1.

target: STAT6 (Homo sapiens, UniProt P42226); assay: Inhibition of STAT6 binding (duplex formation); details: Table 1; inhibitors of STAT6 binding (duplex formation)
Sequence (P42226 whole entry, species assumed): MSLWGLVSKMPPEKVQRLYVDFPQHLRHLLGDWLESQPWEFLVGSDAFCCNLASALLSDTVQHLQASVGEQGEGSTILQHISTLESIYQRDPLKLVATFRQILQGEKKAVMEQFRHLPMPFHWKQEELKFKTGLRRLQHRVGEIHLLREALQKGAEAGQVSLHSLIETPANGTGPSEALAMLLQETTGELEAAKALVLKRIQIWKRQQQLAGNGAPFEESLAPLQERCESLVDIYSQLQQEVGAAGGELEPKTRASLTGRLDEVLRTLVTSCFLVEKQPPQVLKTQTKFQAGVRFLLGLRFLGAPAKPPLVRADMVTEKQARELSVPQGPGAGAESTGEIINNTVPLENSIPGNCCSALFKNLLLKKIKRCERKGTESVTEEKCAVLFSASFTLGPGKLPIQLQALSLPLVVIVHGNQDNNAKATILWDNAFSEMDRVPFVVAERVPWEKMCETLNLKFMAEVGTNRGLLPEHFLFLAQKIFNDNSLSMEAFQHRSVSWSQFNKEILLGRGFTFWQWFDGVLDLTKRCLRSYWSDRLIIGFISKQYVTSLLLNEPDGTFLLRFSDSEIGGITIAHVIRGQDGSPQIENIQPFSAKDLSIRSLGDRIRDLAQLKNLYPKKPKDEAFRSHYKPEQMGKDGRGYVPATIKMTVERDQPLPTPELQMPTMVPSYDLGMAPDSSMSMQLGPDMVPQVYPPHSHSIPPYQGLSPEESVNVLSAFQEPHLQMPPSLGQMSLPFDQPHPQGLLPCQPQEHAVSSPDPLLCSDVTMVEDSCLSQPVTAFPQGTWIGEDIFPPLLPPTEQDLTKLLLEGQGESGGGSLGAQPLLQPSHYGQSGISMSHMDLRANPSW
READOUT_NAME: IC50

| COMPOUND | TESTED_ON | VALUE |
| --- | --- | --- |
| CC(C)(C)[C@H](NC(=O)/C=C/c1ccc(C(O)C(=O)O)cc1)C(=O)N1CCC[C@H]1C(=O)N(Cc1ccc(CN)cc1)c1ccc(C(N)=O)cc1 (some centres unmarked) [drawing 46: H, H, 4-CONH2,4-CH2NH2] | STAT6 (Homo sapiens, UniProt P42226) | 1 to 50 µM |
| Cc1ccc(S(=O)(=O)N[C@@H]2C[C@@H](C(=O)N(Cc3ccccc3)c3ccc(C(N)=O)cc3)N(C(=O)[C@@H](NC(=O)/C=C/c3ccc(C(O)C(=O)O)cc3)C(C)(C)C)C2)cc1 (some centres unmarked) [drawing 46: H, —NH-Tosyl, 4-CONH2, H] | STAT6 (Homo sapiens, UniProt P42226) | > 100 µM |
| CC(C)(C)[C@H](NC(=O)/C=C/c1ccc(C(O)C(=O)O)cc1)C(=O)N1C[C@H](N)C[C@H]1C(=O)N(Cc1ccccc1)c1ccc(C(N)=O)cc1 (some centres unmarked) [drawing 46: H, —NH2,4-CONH2, H] | STAT6 (Homo sapiens, UniProt P42226) | 1 to 50 µM |
| CC(C)(C)[C@H](NC(=O)/C=C/c1ccc(C(O)C(=O)O)cc1)C(=O)N1C[C@H](NC(=O)c2ccccc2)C[C@H]1C(=O)N(Cc1ccccc1)c1ccc(C(N)=O)cc1 (some centres unmarked) [drawing 46: H, —NHBz, 4-CONH2, H] | STAT6 (Homo sapiens, UniProt P42226) | 1 to 50 µM |

Now for a further compound.
Fill in the blank: the reported IC50 of CC(=O)N[C@@H]1C[C@@H](C(=O)N(Cc2ccccc2)c2ccc(C(N)=O)cc2)N(C(=O)[C@@H](NC(=O)/C=C/c2ccc(C(O)C(=O)O)cc2)C(C)(C)C)C1 (some centres unmarked) [drawing 46: H, —NHAc, 4-CONH2, H] is ____.
1 to 50 µM

---

target: STAT6 (Homo sapiens, UniProt P42226); test: Inhibition of STAT6 binding (duplex formation); details: Table 4; STAT6 binding
pIC50: −log10 of the molar value.
READOUT_NAME: pIC50

Here is how some compounds turned out for pIC50.
| COMPOUND | VALUE |
| --- | --- |
| CC(=O)NCc1ccc(N(Cc2ccc(C(N)=O)cc2)C(=O)C2CCCN2C(=O)C(NC(=O)C=Cc2ccc(OP(=O)(O)O)cc2)C(C)(C)C)cc1 (stereo not shown) [drawing 70: 4-CH2NHAc, 4-CONH2] | > 6.00 |
| CC(C)(C)C(NC(=O)C=Cc1ccc(OP(=O)(O)O)cc1)C(=O)N1CCCC1C(=O)N(Cc1ccc(I)cc1)c1ccccc1 (stereo not shown) [drawing 70: H, 4-I] | > 6.00 |
| CC(C)(C)C(NC(=O)C=Cc1ccc(OP(=O)(O)O)cc1)C(=O)N1CCCC1C(=O)N(Cc1ccc(-c2ccccc2)cc1)c1ccccc1 (stereo not shown) [drawing 70: H, 4-phenyl] | 4.30 to 6.00 |
| CC(=O)NCc1ccc(CN(C(=O)C2CCCN2C(=O)C(NC(=O)C=Cc2ccc(OP(=O)(O)O)cc2)C(C)(C)C)c2cccc(C(N)=O)c2)cc1 (stereo not shown) [drawing 70: 3-CONH2,4-CH2NHAc] | > 6.00 |
| CC(=O)NCc1cccc(N(Cc2ccc(C(N)=O)cc2)C(=O)C2CCCN2C(=O)C(NC(=O)C=Cc2ccc(OP(=O)(O)O)cc2)C(C)(C)C)c1 (stereo not shown) [drawing 70: 3-CH2NHAc, 4-CONH2] | > 6.00 |
| CC(C)(C)c1ccc(CN(C(=O)C2CCCN2C(=O)C(NC(=O)C=Cc2ccc(OP(=O)(O)O)cc2)C(C)(C)C)c2ccccc2)cc1 (stereo not shown) [drawing 70: H, 4-t-butyl] | 4.30 to 6.00 |

Now for a further compound.
Fill in the blank: the reported pIC50 of CC(=O)NCc1ccc(CN(C(=O)C2CCCN2C(=O)C(NC(=O)C=Cc2ccc(OP(=O)(O)O)cc2)C(C)(C)C)c2ccc(C(N)=O)cc2)cc1 (stereo not shown) [drawing 70: 4-CONH2,4-CH2NHAc] is ____.
> 6.00
